# target-of-assay: α7-5HT3 L141F (Homo sapiens, UniProt P36544, L141F/M226I/T225I)
# Construct: expressed in transfected cells; host or cells: HEK 293 cells (ATCC CRL-1573)
# Sequence (P36544 with tags, fused parts or gaps L141F/T225I/M226I): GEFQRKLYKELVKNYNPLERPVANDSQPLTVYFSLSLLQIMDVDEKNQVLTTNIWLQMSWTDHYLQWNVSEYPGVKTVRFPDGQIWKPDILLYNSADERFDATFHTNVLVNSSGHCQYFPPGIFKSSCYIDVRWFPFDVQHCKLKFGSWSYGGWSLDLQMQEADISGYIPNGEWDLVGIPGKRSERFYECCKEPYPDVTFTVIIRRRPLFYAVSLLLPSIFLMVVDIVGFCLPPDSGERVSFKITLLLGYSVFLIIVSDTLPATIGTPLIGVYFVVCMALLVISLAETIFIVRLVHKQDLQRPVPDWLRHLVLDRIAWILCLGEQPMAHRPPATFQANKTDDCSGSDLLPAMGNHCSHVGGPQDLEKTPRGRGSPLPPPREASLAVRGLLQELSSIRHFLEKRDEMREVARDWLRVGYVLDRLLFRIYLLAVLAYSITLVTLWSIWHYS
# protocol-description: whole cell voltage clamp recordings (Iss, Ipeak)
# Format: cell-based, human/mouse
# run-conditions: read-out: EC50-Iss, steady state current, IPD 5HT3
endpoint-label: pEC50
Give only the number. pEC50 is defined as minus log10 of concentration in molar units.

Note to self: pEC50 recorded for COc1ccc(OC)c(C(=O)N[C@@H]2CN3CCC2CC3)c1 [Compound 89S] was 6.15

###

# target-of-assay: α7-5HT3 L141F (Homo sapiens, UniProt P36544, L141F/M226I/T225I)
# Construct: expressed in transfected cells; host or cells: HEK 293 cells (ATCC CRL-1573)
# protocol-description: whole cell voltage clamp recordings (Iss, Ipeak)
# Assay type: cell-based, human/mouse
# run-conditions: read-out: EC50-Ipeak, peak current, IPD 5HT3
endpoint-label: EC50 (µM)
Could you give me the number in µM? Just the number is fine.

Value of EC50 reported for the compound COc1ccc(OC)c(C(=O)N[C@@H]2CN3CCC2CC3)c1 [Compound 89S] is 3.2
